Assay: recombinant barcode read abundance after kanamycin selection (control-corrected) (log10(CPM+1)); higher = more efficient recombination; sequences stand for … in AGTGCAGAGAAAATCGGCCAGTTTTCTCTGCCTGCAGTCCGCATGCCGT…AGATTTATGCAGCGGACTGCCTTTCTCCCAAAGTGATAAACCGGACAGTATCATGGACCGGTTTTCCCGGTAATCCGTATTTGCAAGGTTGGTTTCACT; site = the 11-nt target;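 also: IS621 recombinase and bridge RNA in Escherichia coli cells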
TEST READOUT: recombinant barcode read abundance (log10)

sequence="TGACTAGCTTGGGTTCTAACCTGTTGCCT (site TGGCTAGCTAG)" numeric_result=0.0206
sequence="TAGGAGCCTTGGGTTCTAACCTGTTGCGT (site TAGGAGCCTAC)" numeric_result=3.27
sequence="ATGAGAACTTGGGTTCTAACCTGTTGCCG (site ATGAGAACTAG)" numeric_result=1.58
sequence="CACGCATCTTGGGTTCTAACCTGTTGCCT (site CACCAATCTAG)" numeric_result=0.211
sequence="GTATCAACTTGGGTTCTAACCTGTTGCCT (site GTATCACCTAG)" numeric_result=0.0908
sequence="TACCCGCCTTGGGTTCTAACCTGTTGCCT (site TACCCGCCTAG)" numeric_result=0.838
sequence="GTATGAGCTTGGGTTCTAACCTGTTGCCT (site GTATGAGCTAG)" numeric_result=1.5
sequence="GAGAGGTCTTGGGTTCTAACCTGTTGCTT (site GAGAGGTCTAA)" numeric_result=1.79
sequence="GGTTGACCTTGGGTTCTAACCTGTTGCAT (site GGTTCACCTCT)" numeric_result=0.226
sequence="TTCTGTGCTTGGGTTCTAACCTGTTGCCT (site TTCTGTGCTAG)" numeric_result=0.0428
sequence="AGTGCGCCTTGGGTTCTAACCTGTTGCTA (site AGTTCGCCTTA)" numeric_result=0.29
sequence="TGAGTCCCTTGGGTTCTAACCTGTTGCCT (site TGAGTCCCTAG)" numeric_result=2.03
sequence="GTACAGCCTTGGGTTCTAACCTGTTGCCT (site GTACCGCCTAG)" numeric_result=0.0712
